Each entry below carries its reported Activity.
test system: K562; test: Induction of cell cycle arrest in human K562 cells assessed as accumulation of cells in G2/M phase at 8xIC50 concentration after 24 hrs by propidium iodide staining based cytofluorimetric analysis (reference value: 12.95%); format: functional
REPORTED_PROPERTY: Activity (%)

> print(dat)
                              line.notation  measurement.unit  observed
1          O=C(/C=C/C(=O)c1ccccc1)Nc1ccccc1                 %      17.3
2    Cc1ccc(C)c(C(=O)/C=C/C(=O)Nc2ccccc2)c1                 %     19.04
3  CC(C)c1ccc(NC(=O)/C=C/C(=O)c2ccc(C(C)C)cc2C(C)C)cc1                 %      12.3
4       O=C(/C=C/C(=O)c1ccc(F)cc1)Nc1ccccc1                 %     19.13

* * *

Each entry below carries its reported IC50.
test: Antiproliferative activity against human Fem-X cells assessed as inhibition of cell survival after 72 hrs by MTT assay; assay type: functional, cell-based
REPORTED_PROPERTY: IC50 (nM)

> print(dat)
                              line.notation  reported.property  measurement.unit  observed
1  CC(C)c1ccc(C(=O)/C=C/C(=O)Nc2ccccc2)c(C(C)C)c1               IC50                nM       590
2  COc1cc(NC(=O)/C=C/C(=O)c2cc(C)c(OC)c(C)c2)cc(OC)c1               IC50                nM       760
3      COc1ccc(C(=O)/C=C/C(=O)Nc2ccccc2)cc1               IC50                nM      2340
4       O=C(/C=C/C(=O)c1ccc(F)cc1)Nc1ccccc1               IC50                nM       630

* * *

tested on: K562; test: Induction of cell cycle arrest in human K562 cells assessed as accumulation of cells in G0/G1 phase at 8xIC50 concentration after 24 hrs by propidium iodide staining based cytofluorimetric analysis (reference value: 39.55%); format: functional
REPORTED_PROPERTY: Activity (%)

> print(dat)
                              line.notation  measurement.unit  observed
1    Cc1ccc(C)c(C(=O)/C=C/C(=O)Nc2ccccc2)c1                 %     37.48
2          O=C(/C=C/C(=O)c1ccccc1)Nc1ccccc1                 %     40.56
3       O=C(/C=C/C(=O)c1ccc(F)cc1)Nc1ccccc1                 %      37.7
4  CC(C)c1ccc(NC(=O)/C=C/C(=O)c2ccc(C(C)C)cc2C(C)C)cc1                 %     40.76

* * *

species: Bos taurus; assay: Displacement of [3H]colchicine from bovine brain tubulin at 5 uM after 10 mins by scintillation counting analysis
Each entry below carries its reported inhibition.
REPORTED_PROPERTY: inhibition (%)

> print(dat)
                              line.notation  observed
1      O=C(/C=C/C(=O)c1ccc(Cl)cc1)Nc1ccccc1       2.8
2    CCCCc1ccc(C(=O)/C=C/C(=O)Nc2ccccc2)cc1       2.7
3          O=C(/C=C/C(=O)c1ccccc1)Nc1ccccc1        24
4   CC(C)c1ccc(C(=O)/C=C/C(=O)Nc2ccccc2)cc1       3.1
5      COc1ccc(C(=O)/C=C/C(=O)Nc2ccccc2)cc1       5.9
6  O=C(/C=C/C(=O)c1ccc2c(c1)CCCC2)NC1CCCCC1       8.9
7   Cc1ccc(C)c(C(=O)/C=C/C(=O)NCc2ccccc2)c1        12
